I'd appreciate it if you could supply z-score values for the items below.
Test: mitochondrial membrane potential change in A549 cells, profiling panel, cell-based, JC-1 fluorescence, basal, 24 h, 100 nL (AID 1138);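 further: A549 lung adenocarcinoma cells under basal conditions with no added stimulus; test concentration not given here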
Details: higher = more signal

Record summary for `CCCNC(=O)OC[C@H]1O[C@H](CCON=C2[C@H]3CCn4c(=O)n(-c5ccccc5)c(=O)n4[C@H]3[C@H](O)[C@@H]3O[C@H]23)C=C[C@@H]1Oc1ccc(OC)cc1` : reported z-score = -0.0269

Record summary for `COc1ccccc1CN1C(=O)c2ccccc2[C@@H](C(=O)NCC(F)(F)F)[C@@H]1c1ccc(CO)cc1` : reported z-score = 1.13

Record summary for `CCOC(=O)NN=C1C[C@@H](O)[C@@H](O)[C@@H]2[C@@H]3C(=O)N(C4CCCCC4)C(=O)[C@@H]3CC[C@H]12` : reported z-score = -1.13

Record summary for CC1CC/C=C\[C@H]2OC34C=CCN(Cn5nnc6ccccc65)C(=O)[C@H]3N(CCO)C(=O)[C@@H]4C2C(=O)O1 (some centres undefined) : reported z-score = -0.547

Record summary for `C[C@@H](c1ccccc1)N1C(=O)[C@H]2[C@H]3[C@H](O)[C@H](O)CC(=NNC(=O)OCc4ccccc4)[C@H]3CC[C@H]2C1=O` : reported z-score = -0.118

Record summary for `CCCNC(=O)OC[C@H]1O[C@H](CCON=CC[C@@H]2C=C[C@H](OC(C)=O)[C@@H](COC(C)=O)O2)C=C[C@@H]1Oc1ccc(OC)cc1` : reported z-score = -1.16

Record summary for CCOC(=O)[C@H](CC(C)C)NC(=O)CCC1CC(OC(=O)NCc2cccc3ccccc23)CC2(CCCC(COC(=O)NCCN3CCOCC3)O2)O1 (some centres undefined) : reported z-score = 0.154

Record summary for `CC(C)(C)N1C(=O)[C@H]2[C@H]3[C@H](O)[C@H](O)CC(=NOCc4ccccc4)[C@@H]3CC[C@H]2C1=O` : reported z-score = 0.0533

Record summary for `O=C1[C@H]2[C@H]3[C@H](O)[C@H](O)CC(=NOC[C@@H](O)COCc4ccco4)[C@H]3CC[C@H]2C(=O)N1C1CCCCC1` : reported z-score = -0.948

Record summary for `COC(=O)CC=C[C@@H](C)[C@@H](C=NO[C@H](C)c1cn([C@@H]2COC[C@H]2O)nn1)OC` : reported z-score = 0.014

Record summary for `COCCOC(=O)N1C(=O)[C@@]2(c3ccccc31)[C@H](C(N)=O)[C@H]1C(=O)O[C@H](c3ccccc3)[C@H](c3ccccc3)N1[C@@H]2c1ccccc1OCCO` : reported z-score = 0.431

Record summary for `CC(C)CON=C1C[C@@H](O)[C@@H](O)[C@@H]2[C@@H]3C(=O)N(C[C@@H]4CCCO4)C(=O)[C@@H]3CC[C@H]12` : reported z-score = -0.786

Record summary for COC(=O)C1=CCC(c2cccc(Cl)c2)O1 (centres undefined) : reported z-score = -0.816

Record summary for `CCOC(=O)CCN1C(=O)[C@H]2[C@H]3[C@H](O)[C@H](O)CC(=NOC[C@@H](O)COCc4ccco4)[C@H]3CC[C@H]2C1=O` : reported z-score = -1.06
